- Test system: Trichophyton benhamiae
- assay-info: Minimum inhibitory concentration against Trichophyton mentagrophytes IFO 5810
- Assay type: functional, Arthroderma benhamiae
reported-metric: MIC (µg/mL)
Respond with the bare value in µg/mL.

Return MIC measured with Trichophyton benhamiae given this molecule: "CC(C)=C(c1ccccc1OCc1ccc(Cl)cc1)n1ccnc1"
0.8

Could you share what MIC was measured for "CC=C(c1ccccc1OCc1ccc(Cl)c(Cl)c1)n1ccnc1" , tested on Trichophyton benhamiae?
0.8

What MIC appears in the records for this molecule with Trichophyton benhamiae? "C=C(c1cc(Cl)ccc1OCc1ccccc1)n1ccnc1"
1.6

# query: MIC | item "C=C(c1cc(Cl)ccc1OCc1ccc(Cl)cc1)n1ccnc1" | system: Trichophyton benhamiae
1.6

Quick check: MIC on Trichophyton benhamiae, item "C/C=C(/c1ccccc1OCc1ccc(Cl)cc1)n1ccnc1" ?
0.8

Given the entry "C=C(c1ccccc1OCc1ccc(Cl)cc1)n1ccnc1" , what MIC was observed with Trichophyton benhamiae?
0.8

New cases:
What value of MIC on Trichophyton benhamiae does "C/C=C(\c1ccccc1OCc1ccc(Cl)cc1)n1ccnc1" have?
0.8

Trichophyton benhamiae / MIC / "C=C(c1ccccc1OCc1cccc(Cl)c1)n1ccnc1" : value?
0.8

Please state recorded MIC (tested on Trichophyton benhamiae) of "C=C(c1ccccc1OCc1ccsc1Cl)n1ccnc1"
0.8

###

- Test system: Trichophyton benhamiae
- assay-info: Minimum inhibitory concentration against Trichophyton mentagrophytes IFO 5809
- Assay type: functional, Arthroderma benhamiae
reported-metric: MIC (µg/mL)
Lab book: enter the figure in µg/mL, no units written.

Find the recorded MIC belonging to "C=C(c1cc(Cl)ccc1OCc1ccccc1)n1ccnc1" and report it.
1.6

---
What value of MIC has been reported for the following molecule? "C=C(c1ccccc1OCc1ccsc1Cl)n1ccnc1"
1.6

For the molecule "C/C=C(/c1ccccc1OCc1ccc(Cl)cc1)n1ccnc1" , what MIC is on record?
1.6

// returns reported MIC for input C=C(c1ccccc1OCc1cccc(Cl)c1)n1ccnc1 [CROCONAZOLE]
0.8

Quick one: MIC for "CC=C(c1ccccc1OCc1ccc(Cl)c(Cl)c1)n1ccnc1" ?
0.8

Returns the measured MIC for the input molecule. Input: "C=C(c1cc(Cl)ccc1OCc1ccc(Cl)cc1)n1ccnc1"
1.6

Look at this molecule and give its reported MIC. "CC(C)=C(c1ccccc1OCc1ccc(Cl)cc1)n1ccnc1"
1.6

I would be grateful if you could share the reported MIC for "C=C(c1ccccc1OCc1ccc(Cl)cc1)n1ccnc1" .
1.6

Please report the recorded MIC for "C/C=C(\c1ccccc1OCc1ccc(Cl)cc1)n1ccnc1" .
0.8

###

- Test system: Aspergillus fumigatus
- assay-info: Minimum inhibitory concentration (MIC) against Aspergillus fumigatus
- Assay type: functional
Returns: string. Value is y if measured MIC is below 3 µg/mL, and n if it is greater than or equal to it.

Record "C=C(c1ccccc1OCCCc1ccccc1)n1ccnc1" : is its MIC strictly below 3 µg/mL?
n

Further cases:
Could you please tell me whether MIC recorded for "C/C=C(/c1ccccc1OCc1ccc(Cl)cc1)n1ccnc1" is less than 3 µg/mL?
n

Could you please tell me whether MIC recorded for "C=C(c1ccccc1OCc1ccccc1)n1ccnc1" is less than 3 µg/mL?
n

A record lists "CC=C(c1ccccc1OCc1ccc(Cl)cc1Cl)n1ccnc1" . Is its MIC below 3 µg/mL?
y

Please indicate whether the reported MIC of "C=C(c1cc(Cl)ccc1OCc1ccc(Cl)cc1)n1ccnc1" is strictly below 3 µg/mL.
n

Would you kindly verify if MIC of "CC=C(c1ccccc1OCc1ccc(Cl)c(Cl)c1)n1ccnc1" is strictly less than 3 µg/mL?
y

Identify whether the molecule "C=C(c1cc(Cl)ccc1OC(C)C)n1ccnc1" records MIC below 3 µg/mL.
y

Please state whether MIC is below 3 µg/mL for "CC(C)=C(c1cc(Cl)ccc1OCc1ccc(C)cc1)n1ccnc1"
n

Is it true that MIC reported for "C=C(c1cc(Cl)ccc1OCc1ccc(C)cc1)n1ccnc1" is less than 3 µg/mL?
y

Does "C/C=C(/c1cc(Cl)ccc1OCCC)n1ccnc1" have MIC strictly under 3 µg/mL?
n

Take the molecule C=C(c1ccccc1OC(CCC)c1ccccc1)n1ccnc1 (configuration not stated) and say whether its MIC is less than 3 µg/mL.
n

Lab log: compare recorded MIC with 3 µg/mL; is it strictly lower for "C=C(c1ccccc1OCCCOc1ccc(Cl)cc1)n1ccnc1" ?
n

###

- Tested on: Trichophyton rubrum
- assay-info: Minimum inhibitory concentration against Trichophyton rubrum IFO 5807
- Format: functional
This section presents molecules with their documented MIC values.
Write it as a number; the unit µg/mL goes unstated.

// below: answered molecules
Requested read-out: MIC. Entry: "Clc1ccccc1C(c1ccccc1)(c1ccccc1)n1ccnc1"
0.8

For the molecule "C/C=C(/c1ccccc1OCc1ccc(Cl)cc1)n1ccnc1" , what MIC is on record?
1.6

Endpoint output: MIC of "CC=C(c1ccccc1OCc1ccc(Cl)c(Cl)c1)n1ccnc1" . Value?
0.8

Consider the molecule shown here: "C=C(c1ccccc1OCc1ccc(Cl)cc1)n1ccnc1" What is its recorded MIC?
0.8

// returns reported MIC for input "C/C=C(\c1ccccc1OCc1ccc(Cl)cc1)n1ccnc1"
0.8

Okay, now this molecule:
Record request: MIC value, item "C=C(c1ccccc1OCc1ccsc1Cl)n1ccnc1"
0.8

###

Below, each of the compounds is paired with its reported MIC value.
- Tested on: Aspergillus fumigatus
- assay-info: Minimum inhibitory concentration (MIC) against Aspergillus fumigatus
- Type: functional
Give just the number in µg/mL; leave the unit off.

As a guide, the following entries are already answered.
Value lookup for MIC; key = "CC(C)COc1ccccc1/C(=C/CN(C)c1ccccc1)n1ccnc1"
6.3

Requested read-out: MIC. Entry: "C=C(c1cc(Cl)ccc1OCC(C)C)n1ccnc1"
0.8

Need MIC, item "C=C(c1ccccc1OC)n1ccnc1"
12.5

# next compound below
Suppose we examine the compound "C=C(c1cc(Cl)ccc1OCc1ccc(C(=O)OC)cc1)n1ccnc1" ; what MIC value has been reported?
6.2

###

- Test system: Aspergillus fumigatus
- assay-info: Minimum inhibitory concentration (MIC) against Aspergillus fumigatus
- Type: functional
Recorded MIC values for a group of molecules are listed next.

Write down the reported MIC of "C=C(c1ccccc1OCc1ccc(Cl)cc1Cl)n1ccnc1" , test system: Aspergillus fumigatus.
1.6 µg/mL

Further cases:
Form field - read-out: MIC; system: Aspergillus fumigatus; submitted item: "CC(C)=C(c1ccccc1OCCc1ccccc1)n1ccnc1"
0.8 µg/mL

Item: "CC=C(c1cc(Cl)ccc1OCc1ccc(Cl)cc1)n1ccnc1" Test system: Aspergillus fumigatus Read-out: MIC Value: ?
0.8 µg/mL

Checklist item: MIC tested on Aspergillus fumigatus, entry "CC=C(c1ccccc1OCc1cccc(Cl)c1)n1ccnc1" , value?
1.6 µg/mL

What measured MIC is associated with "CC(C)=C(c1ccccc1OCc1ccccc1)n1ccnc1" on Aspergillus fumigatus?
12.5 µg/mL

What reported MIC corresponds to C=C(c1ccccc1OC(C)c1ccccc1)n1ccnc1 (stereo not given) on Aspergillus fumigatus?
6.2 µg/mL

###

- Test system: Aspergillus fumigatus
- assay-info: Minimum inhibitory concentration (MIC) against Aspergillus fumigatus
- Assay type: functional
reported-metric: MIC (µg/mL)
Numeric answer only, unit µg/mL assumed.

Dear colleague, I am looking for the recorded MIC of the following molecule: "CCC=C(c1cc(Cl)ccc1OCc1ccc(Cl)cc1)n1ccnc1"
0.8

Next:
GET /values?readout=MIC&item= "C=C(c1ccc(Cl)cc1)n1ccnc1"
100

###

- System: Aspergillus fumigatus
- assay-info: Minimum inhibitory concentration (MIC) against Aspergillus fumigatus
- Format: functional
reported-metric: MIC (µg/mL)
// note: answer is a bare numeric in µg/mL

Give the measured MIC of C=C(c1ccccc1OC(CC)c1ccccc1)n1ccnc1 (configuration not stated) .
3.1

MIC for "CC(C)=C(c1ccccc1OCc1ccc(Cl)cc1Cl)n1ccnc1" ?
1.6

// lookup MIC for "CC(C)=C(c1ccccc1OCc1ccc(C)cc1)n1ccnc1"
6.2

Fill in: MIC of "C=C(c1ccccc1OCc1ccc(C(C)C)cc1)n1ccnc1" is ___
3.1

Give its MIC value. Item: C=C(c1cc(Cl)ccc1OC(C)c1ccsc1)n1ccnc1 (configuration not stated)
3.1

Further cases:
Can you look up the measured MIC of "C=C(c1cc(Cl)cc(Cl)c1OCc1ccsc1)n1ccnc1" for me?
100

What does the data say about its MIC? Entry: "CCC(CC)=C(c1cc(Cl)ccc1OC)n1cncn1"
100

I would be grateful if you could share the reported MIC for "C=C(c1ccccc1OCCc1ccc(Cl)cc1)n1ccnc1" .
0.4

###

- System: Aspergillus fumigatus
- assay-info: Minimum inhibitory concentration (MIC) against Aspergillus fumigatus
- Format: functional
Reported MIC by item:
Kindly provide the numeric value in µg/mL only, without the unit symbol.

// MIC lookup, key: "CCC=C(c1cc(Cl)ccc1OCc1ccccc1)n1ccnc1"
1.6

Which MIC reading was recorded for the molecule "C=C(c1cc(Cl)ccc1OCCc1ccccc1)n1ccnc1" ?
6.3

Which MIC is reported for this molecule? "COc1ccc(Cl)cc1/C(=C/c1ccccc1)n1ccnc1"
25

// next item, MIC requested
Which value of MIC has been reported for "C=C(c1cc(Cl)ccc1OCc1ccccc1)n1ccnc1" in the records?
3.1
